Biological target: full-length human PLD2 (Homo sapiens (Human), UniProt O14939)
Sequence (O14939 whole entry): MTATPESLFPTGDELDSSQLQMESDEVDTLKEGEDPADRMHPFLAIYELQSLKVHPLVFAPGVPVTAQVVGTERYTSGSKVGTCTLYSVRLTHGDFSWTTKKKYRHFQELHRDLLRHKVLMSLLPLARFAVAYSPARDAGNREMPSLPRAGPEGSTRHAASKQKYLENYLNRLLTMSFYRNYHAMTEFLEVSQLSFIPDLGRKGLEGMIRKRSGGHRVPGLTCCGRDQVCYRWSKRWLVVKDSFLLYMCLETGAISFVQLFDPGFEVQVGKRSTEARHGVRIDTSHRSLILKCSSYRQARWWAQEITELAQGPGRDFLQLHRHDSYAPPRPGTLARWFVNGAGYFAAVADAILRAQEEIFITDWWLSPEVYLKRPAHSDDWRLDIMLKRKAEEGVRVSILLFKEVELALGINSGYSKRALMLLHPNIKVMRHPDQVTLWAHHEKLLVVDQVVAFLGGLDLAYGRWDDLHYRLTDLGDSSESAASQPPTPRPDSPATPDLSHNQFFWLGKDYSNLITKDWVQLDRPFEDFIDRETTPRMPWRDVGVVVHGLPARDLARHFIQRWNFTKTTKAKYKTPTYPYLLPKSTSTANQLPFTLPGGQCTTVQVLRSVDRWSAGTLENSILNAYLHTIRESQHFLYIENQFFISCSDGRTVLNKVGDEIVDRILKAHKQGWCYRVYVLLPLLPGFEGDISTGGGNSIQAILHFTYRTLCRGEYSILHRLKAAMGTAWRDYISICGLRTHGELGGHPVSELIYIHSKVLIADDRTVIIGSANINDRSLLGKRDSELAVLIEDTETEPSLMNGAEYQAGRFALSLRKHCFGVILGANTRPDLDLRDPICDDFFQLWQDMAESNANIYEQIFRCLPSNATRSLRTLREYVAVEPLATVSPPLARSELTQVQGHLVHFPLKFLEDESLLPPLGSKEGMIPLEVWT
Assay: Evaluation of human PLD2 enzyme inhibitory activity (Amplex Red / choline oxidase fluorescence)
Type: biochemical
Conditions: full-length human PLD2 enzyme; read-out: PLD2 IC50
I'd be grateful if you could share measured pIC50 for these entries.
Answers are plain numbers, as −log10 of the molar value.

For orientation, consider the following solved cases.
In [3]: df
Out[3]:
                                   compound  value_measured
0  CNC(=O)C(=O)N[C@@H](C)CN1CCC2(CC1)OC(=O)NN=C2c1ncccc1Br            7.49
1  CNC(=O)C(=O)N[C@@H](C)CC1CCC2(CC1)OC(=O)NN=C2c1ccncc1Br (mixture of isomers)            7.96
2  C[C@@H](C[C@H]1CC[C@]2(CC1)OC(=O)NN=C2c1ccc(OC(F)F)cc1Br)NC(=O)c1ccn[nH]1            7.60
3  C[C@@H](CN1CCC2(CC1)OC(=O)NN=C2c1ccc(C#N)cc1Br)NC(=O)c1cncn1C            6.30
4  CNC(=O)C(=O)N[C@@H](C)C[C@H]1CC[C@]2(CC1)OC(=O)NN=C2c1cccc2c1OCC2            7.32
5  C[C@@H](CN1CCC2(CC1)OC(=O)NN=C2c1cc(C#N)ccc1Br)NC(=O)C1COCCO1 (mixture of isomers)            5.84

Hello, I would appreciate it if you could give pIC50 for each entry below.
1. Cc1ncccc1C1=NNC(=O)O[C@]12CC[C@@H](C[C@H](C)NC(=O)c1cc(Cl)no1)CC2
2. C[C@@H](CN1CCC2(CC1)OC(=O)NN=C2c1ccc(F)cc1Br)NC(=O)N1CCC2(CC2)C1

1. 6.42
2. 7.40

* * *

Target: full-length human PLD2 (Homo sapiens (Human))
Experiment: Evaluation of human PLD2 enzyme inhibitory activity (Amplex Red / choline oxidase fluorescence)
Assay type: biochemical
Settings: full-length human PLD2 enzyme; read-out: PLD2 IC50
observation type: IC50

>>> print(df.to_string())
                                   compound  observation_type  value_measured
0  C[C@@H](CN1CCC2(CC1)OC(=O)NN=C2c1ccc(C#N)cc1Br)NC(=O)c1cc(Cl)no1 [Example 2-061]              IC50         < 10 nM
1  CNC(=O)C(=O)N[C@@H](C)C[C@H]1CC[C@]2(CC1)OC(=O)NN=C2c1cc(OC(F)F)ccc1Br [Example 184]              IC50         < 10 nM
2  Cc1cc(C(=O)N[C@@H](C)C[C@H]2CC[C@]3(CC2)OC(=O)NN=C3c2ccc(C#N)cc2Br)[nH]n1 [Example 199]              IC50         < 10 nM
3  COc1cc(C)c(C2=NNC(=O)O[C@]23CC[C@@H](C[C@H](C)NC(=O)N2CCn4c(nnc4C(F)(F)F)C2)CC3)cn1 [Example 259]              IC50         2500 nM
4  C[C@@H](CN1CCC2(CC1)OC(=O)NN=C2c1ccc(C#N)cc1Br)NC(=O)c1cnn(C)c1 [Example 336]              IC50         < 10 nM
5  C[C@@H](C[C@H]1CC[C@]2(CC1)OC(=O)NN=C2c1cccc(OC(F)F)c1Br)NC(=O)c1cnn(C)c1 [Example 309]              IC50         < 10 nM

Kindly consider the entry below.
Look at this compound and give its reported IC50. C[C@@H](C[C@H]1CC[C@]2(CC1)OC(=O)NN=C2c1cccc2c1OCC2)NC(=O)c1cc(Cl)no1 [Example 108]
38 nM

* * *

I'd be grateful if you could share measured IC50 for these entries.
Biological target: full-length human PLD2 (Homo sapiens (Human))
Assay: Evaluation of human PLD2 enzyme inhibitory activity (Amplex Red / choline oxidase fluorescence)
Assay type: biochemical
Conditions: full-length human PLD2 enzyme; read-out: PLD2 IC50

In [3]: df
Out[3]:
                                   molecule  observation_type  value_measured
0  CNC(=O)C(=O)N[C@@H](C)C[C@H]1CC[C@]2(CC1)OC(=O)NN=C2c1ccccc1Br [Example 26]              IC50       < 0.01 µM
1  CNC(=O)C(=O)N[C@@H](C)C[C@H]1CC[C@]2(CC1)OC(=O)NN=C2c1cnccc1Br [Example 151]              IC50       < 0.01 µM
2  COc1ccc(C2=NNC(=O)O[C@]23CC[C@@H](C[C@H](C)NC(=O)c2cc(Cl)no2)CC3)c(Br)c1 [Example 59]              IC50       < 0.01 µM
3  CNC(=O)C(=O)N[C@@H](C)C[C@H]1CC[C@]2(CC1)OC(=O)NN=C2c1cnc(OCC(F)(F)F)cc1C [Example 170]              IC50       < 0.01 µM
4  CNC(=O)C(=O)N[C@@H](C)C[C@H]1CC[C@]2(CC1)OC(=O)NN=C2c1cnc(C(N)=O)cc1C [Example 187]              IC50        0.455 µM
5  C[C@@H](C[C@H]1CC[C@]2(CC1)OC(=O)NN=C2c1ccc(F)cc1Br)NC(=O)CCS(C)(=O)=O [Example 43]              IC50        0.184 µM

Kindly consider the entry below.
Look at this molecule and give its reported IC50. C[C@@H](C[C@]1(C#N)CC[C@@]2(CC1)OC(=O)NN=C2c1cc(OC(F)F)ccc1Br)NC(=O)c1cn(C)cn1 [Example 2-078]
< 0.01 µM

* * *

Molecular target: full-length human PLD1 (Homo sapiens (Human), UniProt Q13393)
Sequence (Q13393 other isoform, or with tags, fused parts or gaps): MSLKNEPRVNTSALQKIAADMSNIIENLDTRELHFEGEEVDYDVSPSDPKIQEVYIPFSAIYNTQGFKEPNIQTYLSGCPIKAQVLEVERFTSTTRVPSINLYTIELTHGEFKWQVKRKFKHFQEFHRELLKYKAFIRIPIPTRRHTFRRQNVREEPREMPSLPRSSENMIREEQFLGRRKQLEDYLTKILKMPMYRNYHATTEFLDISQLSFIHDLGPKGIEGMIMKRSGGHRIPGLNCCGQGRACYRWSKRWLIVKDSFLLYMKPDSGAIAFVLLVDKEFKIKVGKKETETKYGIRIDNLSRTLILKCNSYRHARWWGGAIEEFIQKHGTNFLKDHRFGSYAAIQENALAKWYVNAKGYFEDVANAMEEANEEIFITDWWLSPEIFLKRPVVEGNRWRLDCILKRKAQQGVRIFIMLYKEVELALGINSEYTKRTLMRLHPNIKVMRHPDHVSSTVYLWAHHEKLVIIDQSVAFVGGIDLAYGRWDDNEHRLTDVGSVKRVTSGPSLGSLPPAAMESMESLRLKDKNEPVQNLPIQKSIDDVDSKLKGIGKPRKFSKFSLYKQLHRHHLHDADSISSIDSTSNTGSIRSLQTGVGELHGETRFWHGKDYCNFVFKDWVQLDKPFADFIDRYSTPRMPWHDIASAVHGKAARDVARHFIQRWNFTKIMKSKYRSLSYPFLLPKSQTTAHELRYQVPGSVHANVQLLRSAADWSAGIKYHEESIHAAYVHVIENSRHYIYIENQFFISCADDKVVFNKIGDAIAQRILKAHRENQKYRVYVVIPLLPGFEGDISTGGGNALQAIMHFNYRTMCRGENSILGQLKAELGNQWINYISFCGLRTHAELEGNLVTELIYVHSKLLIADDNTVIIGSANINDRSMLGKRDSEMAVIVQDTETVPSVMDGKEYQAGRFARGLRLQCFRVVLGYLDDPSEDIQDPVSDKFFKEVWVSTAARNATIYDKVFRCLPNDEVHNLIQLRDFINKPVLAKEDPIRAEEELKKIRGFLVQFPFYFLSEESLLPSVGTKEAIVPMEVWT
Experiment: Evaluation of human PLD1 enzyme inhibitory activity (Amplex Red / choline oxidase fluorescence)
Type: biochemical
Conditions: full-length human PLD1 enzyme; read-out: PLD1 IC50
Procedure: A method for measuring human PLD1 enzyme inhibitory activity using an enzyme in which a FLAG-tag is added to the N-terminus of full-length human PLD1 (1-1036 amino acids) is shown below. DNA fragment in which a FLAG-tag sequence is added to the 5′-end of full-length human PLD1 was amplified by PCR method, using commercially available human PLD1 gene (Promega KK) as a template. […]
observation type: pIC50
Numbers only, as −log10 of the molar value.

For orientation, consider the following solved cases.
>>> df
                                   compound                               target_desc  value_measured
0  C[C@@H](C[C@H]1CC[C@]2(CC1)OC(=O)NN=C2c1ccc(OC(F)(F)F)cc1Br)NC(=O)c1cc2ccccc2o1 [Example 87]  full-length human PLD1 (Homo sapiens (Human), UniProt Q13393)            7.41
1  C[C@@H](CN1CCC2(CC1)OC(=O)NN=C2c1ccc(F)cc1Br)NC(=O)C(=O)NC1CC1 [Example 180]  full-length human PLD1 (Homo sapiens (Human), UniProt Q13393)            7.55
2  CNC(=O)C(=O)N[C@@H](C)CN1CCC2(CC1)OC(=O)NN=C2c1c(F)cccc1Br [Example 2-018]  full-length human PLD1 (Homo sapiens (Human), UniProt Q13393)            7.66
3  Cc1cc(C(=O)N[C@@H](C)C[C@H]2CC[C@]3(CC2)OC(=O)NN=C3c2ccccc2Br)[nH]n1 [Example 27]  full-length human PLD1 (Homo sapiens (Human), UniProt Q13393)            7.85
4  CNC(=O)C(=O)N[C@@H](C)C[C@H]1CC[C@]2(CC1)OC(=O)NN=C2c1ccc(OCC(F)F)cc1Br [Example 85]  full-length human PLD1 (Homo sapiens (Human), UniProt Q13393)            7.92
5  C[C@@H](C[C@H]1CC[C@]2(CC1)OC(=O)NN=C2c1ccc(F)cc1Br)NC(=O)C1(F)CC1 [Example 35]  full-length human PLD1 (Homo sapiens (Human), UniProt Q13393)            6.59
6  CNC(=O)C(=O)N[C@@H](C)C[C@]1(F)CC[C@@]2(CC1)OC(=O)NN=C2c1cc(C#N)ccc1Br [Example 310]  full-length human PLD1 (Homo sapiens (Human), UniProt Q13393)            7.85
7  CNC(=O)C(=O)N[C@@H](C)C[C@H]1CC[C@]2(CC1)OC(=O)NN=C2c1cc(C(=O)NC(C)(C)C)ccc1Br [Example 299]  full-length human PLD1 (Homo sapiens (Human), UniProt Q13393)            7.60

Hello, I would appreciate it if you could give pIC50 for each entry below.
1. C[C@@H](C[C@H]1CC[C@]2(CC1)OC(=O)NN=C2c1ccc(F)cc1Br)NC(=O)c1cc2cc(F)ccc2[nH]1 [Example 13]
2. C[C@@H](CN1CCC2(CC1)OC(=O)NN=C2c1ccc(F)cc1Br)NC(=O)N1CCC2(CC2)C1 [Example 284]
3. C[C@@H](C[C@H]1CC[C@]2(CC1)OC(=O)NN=C2c1cccnc1)NC(=O)c1cc2cc(F)ccc2[nH]1 [Example 15]
4. C[C@@H](CN1CCC2(CC1)OC(=O)NN=C2c1ccc(C(N)=O)cc1Br)NC(=O)c1cnn(C)c1 [Example 337]
5. C[C@@H](C[C@H]1CC[C@]2(CC1)OC(=O)NN=C2c1ccccc1OC(F)(F)F)NC(=O)c1cc(Cl)no1 [Example 111]

1: 7.44; 2: 7.21; 3: 7.60; 4: 7.13; 5: 7.77
